Target: Shiga toxin 2 (Escherichia coli O157:H7) (UniProt P09385+P09386)
Assay: E. coli 0.157:H7 Shiga Toxin SOP - stx2 screening assay
Type: functional
Set-up: scale not given: direction of the effect not stated beside the values
Details: 30 µM
# reported Percent Effect; entries follow
State the answer as a number, implicitly in %.

{"columns": ["compound", "display_unit", "Percent Effect"],
 "data": [
  ["Cn1ccc(CN2CCC(CCc3ccc(O)cc3)CC2)cc1=O", "%", -46.5],
  ["Cc1cccc(-c2noc(CN3CCCC(Cn4cncn4)C3)n2)c1 (stereo unspecified)", "%", -1.3],
  ["O=C1C[C@H]2[C@@H](CCN2C(=O)c2ccccc2)N1CCN1CCOCC1", "%", -0.799]
]}

[ask] // query Percent Effect value for entry O=C(NC1CCN(c2snc3ccccc23)CC1)C1CCC1
[reply] -22.1

[ask] // query Percent Effect value for entry COc1ccc(CN2CCCC3(CCN(c4ccsc4)C3=O)C2)cc1 (stereo unspecified)
[reply] -4.23

###

Molecular target: Aspartate--tRNA(Asp/Asn) ligase (Mycobacterium tuberculosis (strain ATCC 25618 / H37Rv)); note: in the data most compounds retested in dose-response had high values
Sequence (whole entry): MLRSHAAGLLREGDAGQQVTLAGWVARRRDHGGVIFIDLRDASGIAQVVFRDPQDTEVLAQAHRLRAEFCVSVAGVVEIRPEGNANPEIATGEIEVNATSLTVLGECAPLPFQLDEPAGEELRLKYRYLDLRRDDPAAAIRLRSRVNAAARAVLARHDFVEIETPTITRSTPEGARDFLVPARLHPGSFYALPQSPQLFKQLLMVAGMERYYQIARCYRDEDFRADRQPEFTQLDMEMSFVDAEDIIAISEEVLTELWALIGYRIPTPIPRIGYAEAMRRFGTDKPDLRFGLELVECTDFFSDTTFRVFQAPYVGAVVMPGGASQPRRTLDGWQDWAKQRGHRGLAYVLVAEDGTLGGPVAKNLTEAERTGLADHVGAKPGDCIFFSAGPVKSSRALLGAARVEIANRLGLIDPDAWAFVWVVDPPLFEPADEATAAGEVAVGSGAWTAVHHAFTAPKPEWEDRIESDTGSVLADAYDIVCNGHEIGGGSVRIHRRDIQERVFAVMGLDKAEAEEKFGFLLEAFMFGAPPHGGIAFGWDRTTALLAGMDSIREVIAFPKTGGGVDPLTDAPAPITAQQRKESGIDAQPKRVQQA
Test: Assay for Asp RNA synthetase-1 from Mycobacterium tuberculosis
Type: functional
Design: scale not given: direction of the effect not stated beside the values
Conditions: 30 µM
reported_metric: Percent Effect (%)
State the answer as a number, implicitly in %.

Illustrative cases are given below, each with its answer.
{"columns": ["molecule", "Percent Effect / %"],
 "data": [
  ["Cc1ccc(-c2nc(CN3CCc4nn(C)c(=O)cc4C3)no2)cc1", 5.81],
  ["CNC(=O)c1ccc(C(=O)N2CCCC2c2cnn(C)c2)cn1 (stereo not drawn)", -5.79],
  ["c1ccc(-c2noc3c2CN(CC2CC2)CC3)cc1", 4.77]
]}

[ask] // query Percent Effect value for entry CC1c2ncc(CN3CCN(C)CC3)n2CCN1CC1CC1 (stereo not drawn)
[reply] 0.815

[ask] // query Percent Effect value for entry Cc1oncc1C(=O)N1CCC2(CCN(Cc3ccccn3)C2=O)C1 (stereo not drawn)
[reply] -2.39

[ask] // query Percent Effect value for entry O=C1CO[C@@H]2CN(S(=O)(=O)c3ccccc3)C[C@H]2N1CC1CC1
[reply] 5.5

[ask] // query Percent Effect value for entry COCCN(C)CCN1CC2(CCN(C(=O)C3CCOC3)CC2)OC1=O (stereo not drawn)
[reply] -1.75

[ask] // query Percent Effect value for entry Cn1c(Cn2ccnc2)nnc1C1CCCN(C2CCCCC2)C1 (stereo not drawn)
[reply] -2.02

[ask] // query Percent Effect value for entry CC(C)c1nc(C2CCCN(C(=O)c3ccc4[nH]cnc4c3)C2)no1 (stereo not drawn)
[reply] 2.42

[ask] // query Percent Effect value for entry Cc1cc(C)n(CC2CN(CCOc3cccc(F)c3)CCO2)n1 (stereo not drawn)
[reply] 3.93

[ask] // query Percent Effect value for entry CCC(=O)N1CCCC1c1nccnc1Nc1nc(C)cc(C)n1 (stereo not drawn)
[reply] 4.25

[ask] // query Percent Effect value for entry CNC(=O)CCc1cc(C)nc(C2CCCN2)n1 (stereo not drawn)
[reply] 7.7

[ask] // query Percent Effect value for entry NC(=O)C1CCCN(Cc2c(-c3ccco3)[nH]c3ncccc23)C1 (stereo not drawn)
[reply] 10.6

[ask] // query Percent Effect value for entry c1cnc(N2CCC3(CCN(CC4CC4)CC3)CC2)nc1
[reply] 0.564

[ask] // query Percent Effect value for entry Cc1cnc(N2CCC3(CCCN(c4ccc(C)nn4)C3)C2)nc1 (stereo not drawn)
[reply] -0.547

[ask] // query Percent Effect value for entry Cc1noc(C)c1CN1CC2(CCN(C(=O)c3cscn3)CC2)CC1=O
[reply] 6.36

[ask] // query Percent Effect value for entry Cc1csc(N2CCCN(C(=O)C(C)n3ccnc3)CC2)n1 (stereo not drawn)
[reply] 1.2

[ask] // query Percent Effect value for entry Cc1nn(C)c(C)c1C1CCCN1C(=O)c1cnc2n[nH]c(C)c2c1 (stereo not drawn)
[reply] -5.16

[ask] // query Percent Effect value for entry Cc1cc(NC(=O)CCN(CC2CCOC2)C2CC2)no1 (stereo not drawn)
[reply] -6.8

[ask] // query Percent Effect value for entry O=C(NCc1ccccn1)[C@]12COC[C@H]1CN(C1CCC1)C2
[reply] -4.34

[ask] // query Percent Effect value for entry CC(C)N(C)Cc1cnc2n1CCN(CCc1ccccc1)C2
[reply] 0.605

[ask] // query Percent Effect value for entry Cn1cnc2c1CCN(CCCc1ccccc1)C2
[reply] 1.13
